These measurements were taken from the OligoGym collection.

Molecular target: CYP4V2
Assay: pooled miR-30 sensor sort-seq; sequence = guide strand; note: reference of the scale not given here
Details: shRNA
Readout Name: sensor-assay potency score (higher = more potent)

| Residues | Quantitative Readout |
| --- | --- |
| TTCAACTTGATCCAGATGCCAT | -0.613 |
| TCAACTGTCCTTCTAGACCAAG | -1.36 |
| TTCTTCTCGAATATCTTCATGA | -0.54 |
| TCATTCTATAAACTGCACGGAC | -0.644 |
| TTCTGGTTGGATTCTATCCAAA | -1.62 |

* * *

Molecular target: IMMP2L
Experiment: pooled miR-30 sensor sort-seq; sequence = guide strand
Conditions: shRNA
sensor-assay potency score (higher = more potent): recorded values
Readout Name: sensor-assay potency score (higher = more potent)

| Residues | Quantitative Readout |
| --- | --- |
| AATGATACAATGTCACCACGGT | 0.432 |
| TTCAAAAGCACCACATCAGATG | -0.957 |
| TCTTAATGATCTTCTGTTCTGG | 0.00439 |
| TCTACTCTTGCCACACAGGCGA | -0.683 |
| TTGATGTATCTTTTCACCCACC | -0.733 |
| TTCAAGAGCAATCACTCTCTTA | -0.135 |
| TATGGTTCTGACAATATCTCCT | 0.439 |
| TCAAAATTCCTCACTTTCCAGT | -0.183 |
